System: A375 cells
procedure-summary: Cellular ERK phosphorylation (pERK)
Type: cell-based, human
conditions: Homo sapiens, A-375; A375 (BRAF^V600E)
Task for the reader: assign each of the following molecules its reported EC50.

For `CCn1c(-c2cc(N3CCN(C)CC3)cnc2[C@H](C)OC)c2c3cc(ccc31)-c1csc(n1)C[C@H](NC(=O)[C@H]1CCO1)C(=O)N1CCC[C@H](N1)C(=O)OCC(C)(C)C2` the molecule record lists EC50 as > 10 µM

For `CCn1c(-c2cccnc2[C@H](C)OC)c2c3cc(ccc31)-c1cccc(c1)C[C@H](NC(=O)[C@H](C(C)C)N(C)C(=O)[C@H]1CCN(C(C)=O)C1)C(=O)N1CCC[C@H](N1)C(=O)OCC(C)(C)C2` the molecule record lists EC50 as > 10 µM

For `CCn1c(-c2cc(N3CCN(C4CC4)CC3)cnc2[C@H](C)OC)c2c3cc(ccc31)-c1csc(n1)C[C@H](NC(=O)[C@H]1[C@@H]3COC[C@@H]31)C(=O)N1CCC[C@H](N1)C(=O)OCC(C)(C)C2` the molecule record lists EC50 as > 10 µM

For `CCn1c(-c2cccnc2[C@H](C)OC)c2c3cc(ccc31)-c1csc(n1)C[C@H](NC(=O)[C@H](C(C)C)N(C)C(C)=O)C(=O)N1CCC[C@H](N1)C(=O)OCC(C)(C)C2` the molecule record lists EC50 as > 10 µM

For `CCn1c(-c2cccnc2[C@H](C)OC)c2c3cc(ccc31)-c1csc(n1)C[C@H](NC(=O)[C@H]1CCO1)C(=O)N1CCC[C@H](N1)C(=O)OCC(C)(C)C2` the molecule record lists EC50 as > 10 µM

====

System: Capan-1 cells
procedure-summary: Cellular ERK phosphorylation (pERK)
Format: cell-based
conditions: Homo sapiens; Capan-1 (KRAS^G12V PDAC); (95% CI)
Task for the reader: assign each of the following compounds its reported EC50.
The answer is to be given in nM; state only the numeric part.

For CCn1c(-c2cccnc2[C@H](C)OC)c2c3cc(ccc31)-c1csc(n1)C[C@H](NC(=O)[C@H](C(C)C)N(C)C(C)=O)C(=O)N1CCC[C@H](N1)C(=O)OCC(C)(C)C2 [Compound 2] the compound record lists EC50 as 31.6

For CCn1c(-c2cc(N3CCN(C4CC4)CC3)cnc2[C@H](C)OC)c2c3cc(ccc31)-c1csc(n1)C[C@H](NC(=O)[C@H]1[C@@H]3COC[C@@H]31)C(=O)N1CCC[C@H](N1)C(=O)OCC(C)(C)C2 [RMC-7977] the compound record lists EC50 as 0.421

For CCn1c(-c2cccnc2[C@H](C)OC)c2c3cc(ccc31)-c1csc(n1)C[C@H](NC(=O)[C@H]1CCO1)C(=O)N1CCC[C@H](N1)C(=O)OCC(C)(C)C2 [Compound 3] the compound record lists EC50 as 124

For CCn1c(-c2cccnc2[C@H](C)OC)c2c3cc(ccc31)-c1cccc(c1)C[C@H](NC(=O)[C@H](C(C)C)N(C)C(=O)[C@H]1CCN(C(C)=O)C1)C(=O)N1CCC[C@H](N1)C(=O)OCC(C)(C)C2 [Compound 1] the compound record lists EC50 as 632

For CCn1c(-c2cc(N3CCN(C)CC3)cnc2[C@H](C)OC)c2c3cc(ccc31)-c1csc(n1)C[C@H](NC(=O)[C@H]1CCO1)C(=O)N1CCC[C@H](N1)C(=O)OCC(C)(C)C2 [Compound 4] the compound record lists EC50 as 1.94

Where do the numbers come from? From paper PMC11111408.
